Consider the following compounds and their measured Kp readings.
test-protocol: Brain to plasma ratio in rat
Type: ADME
assay-context: read-out: BPR

molecular-string: N#Cc1ccc([C@@]2(C3CC3)c3cc(Cl)ccc3NC(=O)N2CC(F)(F)F)cc1
Kp: 1.1
//
molecular-string: C[C@@H](NC(=O)Cc1ccc(C2CC2)cc1)c1ccc(OCC(F)(F)F)cn1
Kp: 0.27
